Target: CCDC6-RET (Homo sapiens, UniProt P07949+Q16204+Q96SW2)
Construct: CCDC6 (natural N-terminal fusion partner, UniProt Q16204); endogenous in cells; host or cells: TPC-1 (parental, papillary thyroid carcinoma)
Sequence (Q16204+P07949 fused): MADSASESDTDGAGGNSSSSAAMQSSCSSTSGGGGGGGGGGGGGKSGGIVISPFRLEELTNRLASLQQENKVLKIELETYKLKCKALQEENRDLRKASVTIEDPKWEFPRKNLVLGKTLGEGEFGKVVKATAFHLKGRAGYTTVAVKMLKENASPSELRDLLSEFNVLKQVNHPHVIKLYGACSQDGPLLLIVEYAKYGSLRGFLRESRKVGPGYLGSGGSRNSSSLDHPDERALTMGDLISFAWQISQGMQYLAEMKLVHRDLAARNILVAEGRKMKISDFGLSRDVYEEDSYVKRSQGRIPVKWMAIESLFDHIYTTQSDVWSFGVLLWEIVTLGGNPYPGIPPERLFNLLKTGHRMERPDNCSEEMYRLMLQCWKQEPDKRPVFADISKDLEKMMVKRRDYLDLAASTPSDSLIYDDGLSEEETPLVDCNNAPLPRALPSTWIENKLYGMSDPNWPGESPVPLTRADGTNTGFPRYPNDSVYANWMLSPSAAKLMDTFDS
Sequence (Q96SW2 whole entry, the tested form may be a part): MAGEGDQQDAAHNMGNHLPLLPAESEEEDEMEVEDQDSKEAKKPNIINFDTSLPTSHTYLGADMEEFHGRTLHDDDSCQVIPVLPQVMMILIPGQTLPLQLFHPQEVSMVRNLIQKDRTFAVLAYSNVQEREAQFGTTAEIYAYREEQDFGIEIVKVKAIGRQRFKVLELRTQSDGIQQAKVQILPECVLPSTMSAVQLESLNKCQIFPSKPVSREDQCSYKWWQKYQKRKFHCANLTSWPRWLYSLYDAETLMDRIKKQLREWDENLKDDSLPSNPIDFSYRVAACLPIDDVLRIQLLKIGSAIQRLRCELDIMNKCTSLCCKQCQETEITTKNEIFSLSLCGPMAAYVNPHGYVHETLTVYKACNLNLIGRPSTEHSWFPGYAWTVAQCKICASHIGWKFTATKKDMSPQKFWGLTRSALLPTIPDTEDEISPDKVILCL
Sequence (Q16531 whole entry partner, the tested form may be a part): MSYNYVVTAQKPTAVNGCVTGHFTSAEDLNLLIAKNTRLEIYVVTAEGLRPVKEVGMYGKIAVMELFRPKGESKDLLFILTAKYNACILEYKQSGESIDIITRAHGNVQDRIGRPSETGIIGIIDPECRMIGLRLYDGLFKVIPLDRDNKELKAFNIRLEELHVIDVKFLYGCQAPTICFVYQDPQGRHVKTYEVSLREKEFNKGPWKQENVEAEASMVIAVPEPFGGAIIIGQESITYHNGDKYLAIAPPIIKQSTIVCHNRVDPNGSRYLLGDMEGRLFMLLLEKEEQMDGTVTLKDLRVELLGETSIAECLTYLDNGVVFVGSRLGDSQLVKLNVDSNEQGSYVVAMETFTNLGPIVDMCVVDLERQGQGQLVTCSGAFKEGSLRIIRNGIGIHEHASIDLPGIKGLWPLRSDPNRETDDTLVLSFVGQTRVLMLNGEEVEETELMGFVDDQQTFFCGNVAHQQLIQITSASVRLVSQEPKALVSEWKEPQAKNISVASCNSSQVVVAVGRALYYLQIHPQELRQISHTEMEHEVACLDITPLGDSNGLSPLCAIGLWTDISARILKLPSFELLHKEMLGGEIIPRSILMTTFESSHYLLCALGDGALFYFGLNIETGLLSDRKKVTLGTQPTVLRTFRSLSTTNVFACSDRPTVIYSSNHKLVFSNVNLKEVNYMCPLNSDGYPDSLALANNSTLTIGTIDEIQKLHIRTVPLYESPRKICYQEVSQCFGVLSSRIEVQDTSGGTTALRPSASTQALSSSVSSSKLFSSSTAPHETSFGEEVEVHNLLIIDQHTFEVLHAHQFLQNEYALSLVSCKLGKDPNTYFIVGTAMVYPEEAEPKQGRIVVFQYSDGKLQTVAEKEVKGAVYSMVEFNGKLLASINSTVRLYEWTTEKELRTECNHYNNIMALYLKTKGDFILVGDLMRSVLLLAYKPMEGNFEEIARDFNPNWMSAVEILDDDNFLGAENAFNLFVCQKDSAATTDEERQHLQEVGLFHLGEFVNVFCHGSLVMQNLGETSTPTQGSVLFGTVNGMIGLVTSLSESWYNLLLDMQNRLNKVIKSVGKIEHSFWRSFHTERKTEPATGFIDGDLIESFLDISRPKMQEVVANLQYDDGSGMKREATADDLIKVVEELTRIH
Assay: Cellular RET degradation, AlphaLISA, TPC-1 cell line
Assay type: cell-based
Details: TPC1, human, 24 h, read-out: Cell Density TPC-1/CCDC6-RET Ymax %
Property measured: Dmax

>>> val("CCOc1cc(-c2ccc(N3CCC(NC(=O)c4cc(F)ccc4F)(C(=O)NCCCCCCN4CCC(c5ccc6c(c5)C(=O)N(C5CCC(=O)NC5=O)C6)CC4)CC3)nc2)c2c(C#N)cnn2c1 (stereo not shown) [Example 163]")
"60 to 90%"
>>> val("CCOc1cc(-c2ccc(N3CCC(CN4CCN(C(=O)CCN5CCC6(CC5)CCN(c5ccc7c(c5)CN(C5CCC(=O)NC5=O)C7=O)CC6)CC4)(NC(=O)c4cc(F)ccc4F)CC3)nc2)c2c(C#N)cnn2c1 (stereo not shown) [Example 91]")
"60 to 90%"
>>> val("CCOc1cc(-c2ccc(N3CCC(CN4CCN(C(=O)CCCCCCCCCCCCNC(=O)COc5cccc6c5CN(C5CCC(=O)NC5=O)C6=O)CC4)(NC(=O)c4cc(F)ccc4F)CC3)nc2)c2c(C#N)cnn2c1 (stereo not shown) [Example 29]")
"> 90%"
>>> val("CCOc1cc(-c2ccc(N3CCC(CN4CCN(C(=O)C5CC6(CC(C(=O)Nc7ccc8c(N9CCC(=O)NC9=O)nn(C)c8c7)C6)C5)CC4)(NC(=O)c4cc(F)ccc4F)CC3)nc2)c2c(C#N)cnn2c1 (stereo not shown) [Example 84]")
"> 90%"
>>> val("CCOc1cc(-c2ccc(N3CCC(CN(C(=O)CCCCCCN4CCN(c5ccc6c(c5)C(=O)N(C5CCC(=O)NC5=O)C6)CC4)C(C)C)(NC(=O)c4cc(F)ccc4F)CC3)nc2)c2c(C#N)cnn2c1 (stereo not shown) [Example 169]")
"60 to 90%"
>>> val("CCOc1cc(-c2ccc(N3CCC(CN4CCN(C(=O)CCCCCCCCNc5ccc6c(N7CCC(=O)NC7=O)nn(C)c6c5)CC4)(NC(=O)c4cc(F)ccc4F)CC3)nc2)c2c(C#N)cnn2c1 [Example 24]")
"60 to 90%"
>>> val("CCOc1cc(-c2ccc(N3CCC(CN4CCN(CCOCCOCCC(=O)Nc5ccc6c(N7CCC(=O)NC7=O)nn(C)c6c5)CC4)(NC(=O)c4cc(F)ccc4F)CC3)nc2)c2c(C#N)cnn2c1 [Example 108]")
"60 to 90%"
>>> val("CCOc1cc(-c2ccc(N3CCC(COCCN4CCN(C(=O)CCCCN5CCN(c6ccc7c(c6)CN(C6CCC(=O)NC6=O)C7=O)CC5)CC4)(NC(=O)c4cc(F)ccc4F)CC3)nc2)c2c(C#N)cnn2c1 (stereo not shown) [Example 35]")
"> 90%"
>>> val("CCOc1cc(-c2ccc(N3CCC(NC(=O)c4cc(F)ccc4F)(C(=O)NCCN4CCN(c5ccc6c(c5)C(=O)N(C5CCC(=O)NC5=O)C6)CC4)CC3)nc2)c2c(C#N)cnn2c1 (stereo not shown) [Example 158]")
"60 to 90%"
>>> val("CCOc1cc(-c2ccc(N3CCC(CN4CCN(C5CN(C(=O)Cc6ccc7c(c6)CN(C6CCC(=O)NC6=O)C7=O)C5)CC4)(NC(=O)c4cc(F)ccc4F)CC3)nc2)c2c(C#N)cnn2c1 (stereo not shown) [Example 62]")
"60 to 90%"
>>> val("CCOc1cc(-c2ccc(N3CCC(CN4CCN(CC5CCN(C(=O)Cc6ccc7c(c6)CN(C6CCC(=O)NC6=O)C7=O)CC5)CC4)(NC(=O)c4cc(F)ccc4F)CC3)nc2)c2c(C#N)cnn2c1 (stereo not shown) [Example 112]")
"> 90%"
>>> val("CCOc1cc(-c2ccc(N3CCC(Cc4ccccc4)(NC(=O)C4CCN(C(=O)CCN5CCC(c6ccc7c(c6)CN(C6CCC(=O)NC6=O)C7=O)CC5)CC4)CC3)nc2)c2c(C#N)cnn2c1 (stereo not shown) [Example 66]")
"60 to 90%"
>>> val("CCOc1cc(-c2ccc(N3CCC(NC(=O)c4cc(F)ccc4F)(C(=O)NCCN4CCC(c5ccc6c(c5)C(=O)N(C5CCC(=O)NC5=O)C6)CC4)CC3)nc2)c2c(C#N)cnn2c1 (stereo not shown) [Example 161]")
"60 to 90%"
>>> val("CCOc1cc(-c2ccc(N3CCC(NC(=O)c4cc(F)ccc4F)(C(=O)NCCCCCCNc4ccc(N5CCC(=O)NC5=O)cc4)CC3)nc2)c2c(C#N)cnn2c1 [Example 148]")
"60 to 90%"
>>> val("CCOc1cc(-c2ccc(N3CCC(CN4CCN(C(=O)CCCCCCCCNc5ccc6c(C7CCC(=O)NC7=O)nn(C)c6c5)CC4)(NC(=O)c4cc(F)ccc4F)CC3)nc2)c2c(C#N)cnn2c1 (stereo not shown) [Example 25]")
"> 90%"
>>> val("CCOc1cc(-c2ccc(N3CCC(CN4CCC(CN5CCN(c6ccc7c(c6)CN(C6CCC(=O)NC6=O)C7=O)CC5)CC4)(NC(=O)c4cc(F)ccc4F)CC3)nc2)c2c(C#N)cnn2c1 (stereo not shown) [Example 69]")
"> 90%"
>>> val("CCOc1cc(-c2ccc(N3CCC(CN4CCC5(CC4)CCN(C(=O)CCN4CCC(c6ccc7c(c6)CN(C6CCC(=O)NC6=O)C7=O)CC4)CC5)(NC(=O)c4cc(F)ccc4F)CC3)nc2)c2c(C#N)cnn2c1 (stereo not shown) [Example 88]")
"> 90%"
>>> val("CCOc1cc(-c2ccc(N3CCC(CN4CCN(CC5CCN(C(=O)Cc6cccc7c6CN(C6CCC(=O)NC6=O)C7=O)CC5)CC4)(NC(=O)c4cc(F)ccc4F)CC3)nc2)c2c(C#N)cnn2c1 (stereo not shown) [Example 111]")
"60 to 90%"
>>> val("CCOc1cc(-c2ccc(N3CCC(CN4CCN(C(=O)CCCCCCN5CCC(c6ccc7c(c6)C(=O)N(C6CCC(=O)NC6=O)C7)CC5)CC4)(NC(=O)c4cc(F)ccc4F)CC3)nc2)c2c(C#N)cnn2c1 (stereo not shown) [Example 19]")
"> 90%"

* * *

Measured Dmax of individual entries
Target: CCDC6-RET (Homo sapiens, UniProt P07949+Q16204+Q96SW2)
Construct: CCDC6 (natural N-terminal fusion partner, UniProt Q16204); endogenous in cells; host or cells: TPC-1 (parental, papillary thyroid carcinoma)
Assay: Cellular RET degradation, AlphaLISA, TPC-1 cell line
Format: cell-based
Conditions: TPC1, human, 24 h, read-out: Cell Density TPC-1/CCDC6-RET Ymax %
Property measured: Dmax

>>> val("CCOc1cc(-c2ccc(N3CCC(CN(C(=O)CCN4CCN(c5ccc6c(c5)C(=O)N(C5CCC(=O)NC5=O)C6)CC4)C(C)C)(NC(=O)c4cc(F)ccc4F)CC3)nc2)c2c(C#N)cnn2c1 (stereo not drawn)")
"60 to 90%"
>>> val("CCOc1cc(-c2ccc(N3CCC(CN(C)C(=O)CCCCCCN4CCC(c5ccc6c(c5)CN(C5CCC(=O)NC5=O)C6=O)CC4)(NC(=O)c4cc(F)ccc4F)CC3)nc2)c2c(C#N)cnn2c1 (stereo not drawn)")
"> 90%"
>>> val("CCOc1cc(-c2ccc(N3CCC(Cc4ccccc4)(NC(=O)CN4CCN(C(=O)CCN5CCC(c6ccc7c(c6)C(=O)N(C6CCC(=O)NC6=O)C7)CC5)CC4)CC3)nc2)c2c(C#N)cnn2c1 (stereo not drawn)")
"60 to 90%"

* * *

Measured DC50 of individual entries
Target: CCDC6-RET (Homo sapiens, UniProt P07949+Q16204+Q96SW2)
Construct: CCDC6 (natural N-terminal fusion partner, UniProt Q16204); endogenous in cells; host or cells: TPC-1 (parental, papillary thyroid carcinoma)
Experiment: Cellular RET degradation, AlphaLISA, TPC-1 cell line
Format: cell-based
Conditions: read-out: Cell Density TPC-1/CCDC6-RET DC50; half-maximal degradation concentration; TPC-1 (CCDC6-RET), 24 hrs
Property measured: DC50

>>> val("CCOc1cc(-c2ccc(N3CCC(CN4CCN(C(=O)CCCCCCCCCCCCCCNC(=O)COc5cccc6c5CN(C5CCC(=O)NC5=O)C6=O)CC4)(NC(=O)c4cc(F)ccc4F)CC3)nc2)c2c(C#N)cnn2c1 (stereo not drawn) [Example 30]")
"100 to 2000 nM"
>>> val("CCOc1cc(-c2ccc(N3CCC(C)(CN4CCN(C(=O)CCCCCCN5CCN(c6ccc7c(c6)CN(C6CCC(=O)NC6=O)C7=O)CC5)CC4)CC3)nc2)c2c(C#N)cnn2c1 (stereo not drawn) [Example 128]")
"100 to 2000 nM"
>>> val("CCOc1cc(-c2ccc(N3CCC(CN4CCN(C(=O)C5CC6(CC(Nc7ccc8c(N9CCC(=O)NC9=O)nn(C)c8c7)C6)C5)CC4)(NC(=O)c4cc(F)ccc4F)CC3)nc2)c2c(C#N)cnn2c1 (stereo not drawn) [Example 93]")
"2 to 10 nM"
>>> val("CCOc1cc(-c2ccc(N3CCC(CN4CCN(C(=O)CCN5CCC6(CC5)CCN(c5ccc7c(c5)CN(C5CCC(=O)NC5=O)C7=O)CC6)CC4)(NC(=O)c4cc(F)ccc4F)CC3)nc2)c2c(C#N)cnn2c1 (stereo not drawn) [Example 91]")
"< 2 nM"
>>> val("CCOc1cc(-c2ccc(N3CCC(CN4CCN(CCOCCC(=O)N5CCC(c6ccc7c(c6)C(=O)N(C6CCC(=O)NC6=O)C7)CC5)CC4)(NC(=O)c4cc(F)ccc4F)CC3)nc2)c2c(C#N)cnn2c1 (stereo not drawn) [Example 101]")
"10 to 100 nM"
>>> val("CCOc1cc(-c2ccc(N3CCC(CN4CCN(C(=O)CCCCCCCCCCNC(=O)COc5cccc6c5CN(C5CCC(=O)NC5=O)C6=O)CC4)(NC(=O)c4cc(F)ccc4F)CC3)nc2)c2c(C#N)cnn2c1 (stereo not drawn) [Example 28]")
"10 to 100 nM"
>>> val("CCOc1cc(-c2ccc(N3CCC(CN4CCN(CCC(=O)N5CCC(c6ccc7c(c6)C(=O)N(C6CCC(=O)NC6=O)C7)CC5)CC4)(NC(=O)c4cc(F)ccc4F)CC3)nc2)c2c(C#N)cnn2c1 (stereo not drawn) [Example 116]")
"2 to 10 nM"
>>> val("CCOc1cc(-c2ccc(N3CCC(CN4CCN(C5CC6(CC(C(=O)N7CCC(c8ccc9c(c8)CN(C8CCC(=O)NC8=O)C9=O)CC7)C6)C5)CC4)(NC(=O)c4cc(F)ccc4F)CC3)nc2)c2c(C#N)cnn2c1 (stereo not drawn) [Example 95]")
"2 to 10 nM"
>>> val("CCOc1cc(-c2ccc(N3CCC(CN(C)C(=O)CCCCCCN4CCN(c5ccc6c(c5)CN(C5CCC(=O)NC5=O)C6=O)CC4)(NC(=O)c4cc(F)ccc4F)CC3)nc2)c2c(C#N)cnn2c1 (stereo not drawn) [Example 137]")
"2 to 10 nM"
